The origin of these recorded values is patent US20170114420.

Target: Norovirus GII.2 (Snow Mountain virus) VLP, capsid protein VP1 (Snow Mountain virus (Norovirus GII.2), UniProt Q80RD6 Q80RD6:1-542)
Assay: ELONA; ELASA, RT, 3 ug/ml VLP; T/N 12.4 at 1 uM (Table 5)
Conditions: chain copies: 180, label: 5' biotin
pKd: −log10 of the molar value.
Readout Kind: pKd

1) SMV-25 (ssDNA) DNA: AGTATACGTATTACCTGCAGCCATCTGTGTGAAGACTATATGGCGCTCACATATTTCTTTCCGATATCTCGGAGATCTTGC | ~6.63
